These entries and their values trace back to patent US10669269B2.

TGT: PDGFR beta (Homo sapiens, UniProt P09619)
Construct: endogenous in cells; host or cells: HS27 human fibroblast cell line
Sequence (P09619 33-1106): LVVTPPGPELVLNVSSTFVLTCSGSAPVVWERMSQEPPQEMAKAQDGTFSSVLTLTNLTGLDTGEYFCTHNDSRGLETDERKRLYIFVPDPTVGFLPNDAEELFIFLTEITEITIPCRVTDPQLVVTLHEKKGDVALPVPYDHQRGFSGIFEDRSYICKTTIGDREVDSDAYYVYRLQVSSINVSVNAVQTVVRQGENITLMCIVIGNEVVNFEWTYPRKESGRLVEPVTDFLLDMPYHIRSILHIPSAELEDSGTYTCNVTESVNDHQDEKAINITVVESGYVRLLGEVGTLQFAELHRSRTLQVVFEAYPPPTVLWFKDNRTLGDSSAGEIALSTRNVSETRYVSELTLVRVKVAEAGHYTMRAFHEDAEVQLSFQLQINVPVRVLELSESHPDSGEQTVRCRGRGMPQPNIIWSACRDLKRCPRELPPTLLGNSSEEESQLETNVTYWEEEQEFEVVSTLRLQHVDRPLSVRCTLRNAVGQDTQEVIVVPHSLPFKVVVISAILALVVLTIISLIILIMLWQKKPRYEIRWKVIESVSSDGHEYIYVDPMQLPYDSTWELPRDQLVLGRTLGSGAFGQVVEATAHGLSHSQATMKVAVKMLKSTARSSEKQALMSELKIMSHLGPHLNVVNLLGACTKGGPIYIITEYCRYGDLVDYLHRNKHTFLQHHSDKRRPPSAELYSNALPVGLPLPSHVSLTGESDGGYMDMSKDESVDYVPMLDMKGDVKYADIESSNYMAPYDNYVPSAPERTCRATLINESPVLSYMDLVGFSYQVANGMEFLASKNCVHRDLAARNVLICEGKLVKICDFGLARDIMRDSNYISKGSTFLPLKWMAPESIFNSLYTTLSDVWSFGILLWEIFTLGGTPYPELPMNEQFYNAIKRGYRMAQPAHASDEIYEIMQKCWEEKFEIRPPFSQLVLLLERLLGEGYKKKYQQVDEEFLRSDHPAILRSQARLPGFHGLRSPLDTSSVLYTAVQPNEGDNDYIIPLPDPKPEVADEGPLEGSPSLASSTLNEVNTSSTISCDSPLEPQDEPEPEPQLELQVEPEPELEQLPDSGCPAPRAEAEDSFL
PROTOCOL_TEXT: Phospho PDGFR LICOR Cell Assay (Example B)
Type: cell-based
EXPERIMENTAL_CONTEXT: averaged IC50; PDGFR beta phosphorylation in HS27 human fibroblast cell line, PDGF-BB stimulation 10 minutes, normalized to total ERK
Where a name gives a salt, the structure may show the parent alone.
I'd appreciate it if you could supply pIC50 values for the items below.
Give bare numbers, as −log10 of the molar value.

// solved cases for pIC50 follow
>>> df
                                   molecule  measurement_type  measured_result
0  Cc1nn(Cc2cc(C)n(C(C)C)n2)c2cccc(NC(=O)c3cnc4cc(OCCN5CCN(C)CC5)ccn34)c12             pIC50             7.99
1  Cc1nn(Cc2cc(C)n(C(C)C)n2)c2cccc(NC(=O)c3cnc4cc(OCCN5CCN(C)[C@@H](C)C5)ccn34)c12             pIC50             7.36
2  Cc1nn(Cc2csc(C(C)C)n2)c2cccc(NC(=O)c3cnc4cc(OCCN5CCN(C)[C@@H](C)C5)ccn34)c12             pIC50             7.76
3  COCCOc1ccn2c(C(=O)Nc3c(Cl)cc(Cl)c4c3cnn4Cc3ccccc3)cnc2c1             pIC50             6.00
4  Cc1nn(Cc2cccc(C(C)C)n2)c2cccc(NC(=O)c3cnc4cc(OCCN5CC6(COC6)C5)ccn34)c12             pIC50             7.66

Hi there! I need pIC50 for each item below, if you can.
1. CN1CCN(CCOc2ccn3c(C(=O)Nc4cccc5c4cnn5Cc4ccc5[nH]cnc5c4)cnc3c2)CC1 [Example 108, dihydrochloride]
2. Cc1nn(Cc2cccc(C(C)C)n2)c2cccc(NC(=O)c3cnc4cc(OCCN5CC6(CNC6)C5)ccn34)c12 [Example 3, trihydrochloride]

A)
1. 6.85
2. 8.00

----------
TGT: PDGFR beta (Homo sapiens, UniProt P09619)
Construct: endogenous in cells; host or cells: HS27 human fibroblast cell line
PROTOCOL_TEXT: Phospho PDGFR LICOR Cell Assay (Example B)
Format: cell-based
EXPERIMENTAL_CONTEXT: averaged IC50; PDGFR beta phosphorylation in HS27 human fibroblast cell line, PDGF-BB stimulation 10 minutes, normalized to total ERK
Structures can show the parent of a compound that is named as a salt.
// class assignment uses IC50 with these ranges: bottom = under 10 nM, middle = from 10 nM up to 100 nM, top = 100 nM and over

Here's what some known entries look like.
In [3]: df
Out[3]:
                                   compound                                       tgt   group
0  Cc1cccc(Cn2nc(C)c3c(NC(=O)c4cnc5cc(OCCN(C)C)ccn45)cccc32)n1 [Example 60]  PDGFR beta (Homo sapiens, UniProt P09619)     top
1  Cc1nn(Cc2cc(C)n(C(C)C)n2)c2cccc(NC(=O)c3cnc4cc(OCCN5CCCN(C)CC5)ccn34)c12 [Example 11]  PDGFR beta (Homo sapiens, UniProt P09619)  middle

Q) Assign a category based on measured IC50 for Cc1cccc(Cn2nc(C)c3c(NC(=O)c4cnc5cc(-c6cnn(C)c6)ccn45)cccc32)n1 [Example 68] and give only the class name.
A) middle

Q) Pick a category. Item: COCCOc1ccn2c(C(=O)Nc3cccc4c3cnn4Cc3ccccc3)cnc2c1 [Example 156]
A) bottom

Q) Textbook exercise: identify the category of the compound given here, COCCOc1ccn2c(C(=O)Nc3cccc4c3cnn4CC3CCCNC3)cnc2c1 (stereo not drawn) [Example 131, hydrochloride] , according to its measured value.
A) top

Q) Which class is correct for the following compound? O=C(Nc1cccc2c1cnn2Cc1ccccc1)c1cnc2ccccn12 [Example 126]
A) middle

Q) Where would O=C(Nc1cccc2c1cnn2Cc1ccccn1)c1cnc2ccccn12 [Example 129] land among the classes by reported IC50?
A) top

Q) Which class is correct for the following compound? COCCOc1ccn2c(C(=O)Nc3cccc4c3cnn4Cc3cccnc3)cnc2c1 [Example 121]
A) middle

Q) Input Cc1nn(Cc2cccc(C(C)C)n2)c2cccc(NC(=O)c3cnc4cc(OCCN5CCOCC5)ccn34)c12 [Example 1] ; output its category
A) middle

Q) Sort Cc1cccc(Cn2nc(C)c3c(NC(=O)c4cnc5cc(OCCN6CCOCC6)ccn45)cccc32)n1 [Example 59] into one of the categories.
A) middle

Q) Hi, small favor: classify Cc1nn(Cc2cccc(C3CC3)n2)c2cccc(NC(=O)c3cnc4cc(OCCN5CCN(C)CC5)ccn34)c12 [Example 47] by its IC50 when you get a moment.
A) bottom

Q) For the record CC(c1ccn2c(C(=O)Nc3cccc4c3cnn4Cc3ccccc3)cnc2c1)N1CCOCC1 (stereo not drawn) [Example 148] , report the class its IC50 corresponds to.
A) top

----------
TGT: PDGFR beta (Homo sapiens, UniProt P09619)
Construct: endogenous in cells; host or cells: HS27 human fibroblast cell line
PROTOCOL_TEXT: Phospho PDGFR LICOR Cell Assay (Example B)
Type: cell-based
EXPERIMENTAL_CONTEXT: averaged IC50; PDGFR beta phosphorylation in HS27 human fibroblast cell line, PDGF-BB stimulation 10 minutes, normalized to total ERK
Structures can show the parent of a compound that is named as a salt.
Would you kindly list IC50 for each of these compounds?
One number for each entry, in nM.

# annotated cases, reported IC50 shown
>>> df
                                   compound                                       tgt  measured_result
0  Cc1nn(Cc2cccc(C(C)C)n2)c2cccc(NC(=O)c3cnc4cc(OCCN5CC6(CN(C)C6)C5)ccn34)c12  PDGFR beta (Homo sapiens, UniProt P09619)             10.7
1  COCCOc1ccn2c(C(=O)Nc3cccc4c3cnn4-c3ccccc3)cnc2c1  PDGFR beta (Homo sapiens, UniProt P09619)             1000
2  Cc1cccc(Cn2nc(C)c3c(NC(=O)c4cnc5cc(OCCN6CCNCC6)ccn45)cccc32)n1  PDGFR beta (Homo sapiens, UniProt P09619)             94.1
3  Cc1nn(Cc2cc(C)n(C(C)C)n2)c2cccc(NC(=O)c3cnc4cc(OCCN5C[C@@H](C)N(C)[C@@H](C)C5)ccn34)c12  PDGFR beta (Homo sapiens, UniProt P09619)              166
4  COCCOc1ccn2c(C(=O)Nc3cccc4c3cnn4Cc3ccc(C(F)(F)F)cc3)cnc2c1  PDGFR beta (Homo sapiens, UniProt P09619)              7.7

Fill in IC50 for each of the 2 compounds listed.
1. Cc1cccc(Cn2nc(C)c3c(NC(=O)c4cnc5cc(OCCN6CCCC6)ccn45)cccc32)n1 [Example 55, dihydrochloride]
2. Cc1nn(Cc2cccc(C3CC3)n2)c2cccc(NC(=O)c3cnc4cc(OCCN5CCN(C)[C@@H](C)C5)ccn34)c12 [Example 26, dihydrochloride]

A)
[305, 63.2]

----------
Please provide measured log10(IC50) for the entries that follow.
TGT: c-KIT (Homo sapiens)
Construct: M-07e cells (human acute megakaryoblastic leukemia cell line) were serum-starved for 4 hours; endogenous in cells
Sequence (P10721 26-976): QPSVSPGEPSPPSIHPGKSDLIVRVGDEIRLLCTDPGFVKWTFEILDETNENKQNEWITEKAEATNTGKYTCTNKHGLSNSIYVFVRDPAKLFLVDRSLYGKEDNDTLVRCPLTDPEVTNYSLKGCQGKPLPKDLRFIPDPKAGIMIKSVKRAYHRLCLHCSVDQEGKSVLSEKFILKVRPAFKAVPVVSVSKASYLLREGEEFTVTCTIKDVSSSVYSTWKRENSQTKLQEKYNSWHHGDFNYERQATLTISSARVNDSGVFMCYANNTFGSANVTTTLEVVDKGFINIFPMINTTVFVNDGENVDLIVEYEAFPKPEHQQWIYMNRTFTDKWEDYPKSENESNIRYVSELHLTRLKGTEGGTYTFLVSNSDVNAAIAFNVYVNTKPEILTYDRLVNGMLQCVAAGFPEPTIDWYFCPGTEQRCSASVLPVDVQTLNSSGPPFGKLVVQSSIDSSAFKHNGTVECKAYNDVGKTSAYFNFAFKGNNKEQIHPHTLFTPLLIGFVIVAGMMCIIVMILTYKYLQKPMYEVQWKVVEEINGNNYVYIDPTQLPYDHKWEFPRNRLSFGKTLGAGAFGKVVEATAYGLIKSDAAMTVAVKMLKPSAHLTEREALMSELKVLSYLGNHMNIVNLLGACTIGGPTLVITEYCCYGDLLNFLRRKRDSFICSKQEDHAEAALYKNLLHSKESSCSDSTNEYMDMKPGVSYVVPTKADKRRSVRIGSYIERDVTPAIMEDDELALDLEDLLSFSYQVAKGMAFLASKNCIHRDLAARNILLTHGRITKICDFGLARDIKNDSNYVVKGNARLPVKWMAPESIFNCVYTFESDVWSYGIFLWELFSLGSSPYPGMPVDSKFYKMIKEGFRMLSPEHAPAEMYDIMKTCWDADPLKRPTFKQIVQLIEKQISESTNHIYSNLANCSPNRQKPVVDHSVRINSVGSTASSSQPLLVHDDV
PROTOCOL_TEXT: c-KIT Cell-Based Assay (Example D)
EXPERIMENTAL_CONTEXT: averaged IC50; phospho-c-KIT in M-07e cells stimulated with 150 ng/ml recombinant human SCF; read-out: cKIT Cell ELISA IC50
# values: log10(IC50), units nM

Solved entries:
In [3]: df
Out[3]:
                               input_smiles  measurement_type  measured_result
0  COCCOc1ccn2c(C(=O)Nc3ccc(Cl)c4c3cnn4Cc3ccccc3)cnc2c1       log10(IC50)             2.60
1  Cc1nn(Cc2cccc(C3CC3)n2)c2cccc(NC(=O)c3cnc4cc(OCCN5CCOCC5)ccn34)c12       log10(IC50)             1.91
2  Cc1cccc(Cn2nc(C)c3c(NC(=O)c4cnc5cc(OCCN6CCN(C)CC6)ccn45)cccc32)n1       log10(IC50)             3.02
3  Cc1cc(Cn2ncc3c(NC(=O)c4cnc5cc(OCCN6CCN(C)CC6)ccn45)cccc32)nn1C(C)C       log10(IC50)             0.90
4  Cc1nn(Cc2cc(C)n(C(C)C)n2)c2cccc(NC(=O)c3cnc4cc(OCCN5CCN(C(C)C)CC5)ccn34)c12       log10(IC50)             2.15

State recorded log10(IC50) for all listed compounds.
1. Cc1nn(Cc2cccc(C3CC3)n2)c2cccc(NC(=O)c3cnc4cc(OCCN5CCN(C(C)C)CC5)ccn34)c12
2. Cc1cccc(Cn2nc(C)c3c(NC(=O)c4cnc5ccccn45)cccc32)n1

A)
1. 1.54
2. 2.72
